Please respond with reported pIC50 for every item in the list.
System: HeLa (HPV18+) cells
Assay: Cell proliferation/viability assay, HeLa cells
Assay type: cell-based
Conditions: Homo sapiens, 96 h, 4 days
Text: Caski (catalog number CRL-1550), SiHa (catalog number HTB-35), C33A (catalog number HTB-31), Saos-2 (ATCC HTB-85), and Hela (catalog number CCL-2) cells were obtained from the American Type Culture Collection (ATCC). The human cervical carcinoma cell lines Caski. […]
pIC50 here: minus log base 10 of the concentration, concentration in moles per litre.

q: GET /values?readout=pIC50&system=HeLa (HPV18+) cells&item= Cc1cc(-c2ccc(F)c(F)c2)c2ncc(OC(F)F)nc2c1
a: 4.77

q: Moving on to the next compound: Cc1cc(-c2ccc(Cl)cc2Cl)c2ncc(OC(F)F)nc2c1
a: 4.96

q: Moving on to the next compound: COc1ccc(-c2cc(C(F)(F)F)cc3nc(OC(F)F)cnc23)cc1C(F)(F)F
a: 5.82

q: Moving on to the next compound: Cc1cc(-c2cccc(Cl)c2)c2ncc(OC(F)F)nc2c1
a: 4.88

q: Moving on to the next compound: C#Cc1cc(-c2ccc(OC)cc2)c2ncc(OC(F)F)nc2c1
a: 5.48

----------
test system: Saos-2 (HPV−) cells; assay: Cell proliferation/viability assay, Saos-2 cells; type: cell-based; details: Homo sapiens, SAOS-2, 96 h, read-out: Saos-2 (HPV−) Proliferation IC50 (μM)
Please respond with reported IC50 for every item in the list.

q: GET /values?readout=IC50&system=Saos-2 (HPV−) cells&item= Cc1cc(-c2ccc(OC(F)(F)F)cc2)c2ncc(OC(F)F)nc2c1
a: > 100 µM

q: Moving on to the next compound: Cc1cc(-c2ccc(C(F)(F)F)cc2)c2ncc(OC(F)F)nc2c1
a: > 100 µM

q: Moving on to the next compound: Cc1cc(-c2ccc(Cl)c(Cl)c2)c2ncc(OC(F)F)nc2c1
a: > 100 µM

q: Moving on to the next compound: Cc1cc(-c2cccc(Cl)c2)c2ncc(OC(F)F)nc2c1
a: > 100 µM

----------
system: HeLa (HPV18+) cells; assay: Cell proliferation/viability assay, HeLa cells; format: cell-based; details: Homo sapiens, 96 h, 4 days
PROPERTY NAME: pIC50
pIC50 here: minus log base 10 of the concentration, concentration in moles per litre.

q: # query: pIC50 of entry COc1ccc(-c2cc(C)cc3nc(OC(F)F)cnc23)cc1
a: 4.97

q: Moving on to the next compound: Cc1cc(-c2ccc(Cl)c(Cl)c2)c2ncc(OC(F)F)nc2c1
a: 4.90

q: Moving on to the next compound: COc1ccc(-c2cc(Cl)cc3nc(OC(F)F)cnc23)cc1
a: 5.03

q: Moving on to the next compound: Cc1cc(-c2ccc(OC(F)(F)F)cc2)c2ncc(OC(F)F)nc2c1
a: 4.35

q: Moving on to the next compound: Cc1cc(-c2cccc(C(F)(F)F)c2)c2ncc(OC(F)F)nc2c1
a: 4.82

q: Moving on to the next compound: COc1ccc(-c2cc(C(F)(F)F)cc3nc(OC(F)F)cnc23)cc1
a: 5.64

q: Moving on to the next compound: COc1ccc(-c2cc(C#N)cc3nc(OC(F)F)cnc23)cc1
a: 5.82

q: Moving on to the next compound: Cc1cc(-c2cccc(OC(F)(F)F)c2)c2ncc(OC(F)F)nc2c1
a: 5.34

----------
Please respond with reported IC50 for every item in the list.
Test system: Caski (HPV16+) cells
Test: Cell proliferation/viability assay, Caski cells
Assay type: cell-based
Conditions: Homo sapiens, Ca-Ski, 96 h, 4 days
Excerpt: Caski (catalog number CRL-1550), SiHa (catalog number HTB-35), C33A (catalog number HTB-31), Saos-2 (ATCC HTB-85), and Hela (catalog number CCL-2) cells were obtained from the American Type Culture Collection (ATCC). The human cervical carcinoma cell lines Caski. […]
Reply with the number and its unit after it.

q: # query: IC50 of entry Cc1cc(-c2cccc(C(F)(F)F)c2)c2ncc(OC(F)F)nc2c1
a: 14.5 µM

q: Moving on to the next molecule: COc1ccc2cc(-c3cc(C(F)(F)F)cc4nc(OC(F)F)cnc34)ccc2c1
a: 2.9 µM

q: Moving on to the next molecule: COc1ccc(-c2cc3ncc(OC(F)F)nc3cc2C(F)(F)F)cc1
a: 5 µM

q: Moving on to the next molecule: Cc1cc(-c2ccc(Cl)c(Cl)c2)c2ncc(OC(F)F)nc2c1
a: 12.8 µM

q: Moving on to the next molecule: COc1ccc(-c2cc(C(F)(F)F)cc3nc(OC(F)F)cnc23)cc1Br
a: 16.5 µM

q: Moving on to the next molecule: COc1ccc(-c2cc(C(F)(F)F)cc3nc(OC(F)F)cnc23)cc1
a: 2.5 µM
